Protein target, amino acids: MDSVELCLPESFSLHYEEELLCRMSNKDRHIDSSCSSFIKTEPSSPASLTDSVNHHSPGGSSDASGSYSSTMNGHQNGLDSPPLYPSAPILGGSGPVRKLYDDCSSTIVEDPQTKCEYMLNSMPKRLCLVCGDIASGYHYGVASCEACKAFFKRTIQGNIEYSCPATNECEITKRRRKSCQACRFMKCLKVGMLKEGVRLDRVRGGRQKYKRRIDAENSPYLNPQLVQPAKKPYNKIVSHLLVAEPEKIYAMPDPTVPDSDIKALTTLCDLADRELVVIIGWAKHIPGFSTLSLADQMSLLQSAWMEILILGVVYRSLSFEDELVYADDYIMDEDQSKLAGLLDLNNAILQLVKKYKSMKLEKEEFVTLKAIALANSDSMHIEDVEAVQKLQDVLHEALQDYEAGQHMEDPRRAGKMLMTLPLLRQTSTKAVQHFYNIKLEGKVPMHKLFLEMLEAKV
resultType: pIC50
Note on pIC50: it is the negative log10 of concentration, concentration in mol/L.

What does the record list as pIC50 for "CC(=O)Oc1ccc(/C(=C(\CCCO)c2ccccc2)c2ccc(OCCN(C)C)cc2)cc1" ?
6.52
